These data points were gathered from patent US20200108069A1.

System: TGF-β1-induced myofibroblast ECM protein production, cells derived from TA tissue
Assay: ECM production assay
Format: cell-based
Settings: Homo sapiens, 168 h; 10 ng/ml TGF-β1 for 7 days; read-out: IC50, TGF-β1-induced ECM protein production: collagen I
pIC50: −log10 of the molar value.
Reported property: pIC50

Structure as smiles | Value measured
CCCc1nc(C)c2c(=O)[nH]c(-c3cc(S(=O)(=O)N4CCN(CC)CC4)ccc3OCC)nn12 | 4.64
